TARGET_ENTITY: Bifunctional dihydrofolate reductase-thymidylate synthase (Toxoplasma gondii)
Sequence (Q07422 whole entry): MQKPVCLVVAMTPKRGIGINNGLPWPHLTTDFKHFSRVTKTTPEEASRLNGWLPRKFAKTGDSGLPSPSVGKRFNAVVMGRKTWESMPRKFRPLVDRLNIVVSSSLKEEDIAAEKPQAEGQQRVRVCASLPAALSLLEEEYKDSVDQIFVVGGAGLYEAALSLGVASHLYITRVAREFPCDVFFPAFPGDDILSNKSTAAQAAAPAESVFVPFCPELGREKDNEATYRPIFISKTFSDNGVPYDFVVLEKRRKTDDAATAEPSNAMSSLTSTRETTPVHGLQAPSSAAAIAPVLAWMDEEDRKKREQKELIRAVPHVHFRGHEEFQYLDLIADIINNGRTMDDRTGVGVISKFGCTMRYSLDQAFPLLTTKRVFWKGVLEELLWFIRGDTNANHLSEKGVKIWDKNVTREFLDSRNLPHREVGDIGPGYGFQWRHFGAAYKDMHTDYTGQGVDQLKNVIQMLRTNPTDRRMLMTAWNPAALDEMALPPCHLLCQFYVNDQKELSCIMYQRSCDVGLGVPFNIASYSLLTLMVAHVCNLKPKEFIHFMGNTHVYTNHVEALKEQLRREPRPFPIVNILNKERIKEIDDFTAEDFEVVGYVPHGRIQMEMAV
Hi! Just check whether IC50 is below 8 nM. Below gives y, equal or above gives n.

Given CCN(Cc1ccccc1)c1ccc2nc(N)nc(N)c2c1 , is recorded IC50 strictly lower than 8 nM?
y

Determine if CCCN(Cc1cc(OC)ccc1OC)c1ccc2nc(N)nc(N)c2c1 shows IC50 strictly lower than 8 nM.
n

Please let me know if CCN(Cc1ccc2ccccc2c1)c1ccc2nc(N)nc(N)c2c1 shows IC50 below 8 nM.
n

Regarding CCN(Cc1cc(Cl)cc(Cl)c1Cl)c1ccc2nc(N)nc(N)c2c1 , kindly confirm whether its IC50 is beneath 8 nM.
n

Take the compound CCN(Cc1cc(OC)ccc1OC)c1ccc2nc(N)nc(N)c2c1 and say whether its IC50 is less than 8 nM.
y
